# Test system: Crude diglycosidase
# TEST: Examination of temperature in the conversion into isoflavone aglycons by diglycosidase using soybean materials
# Assay type: biochemical, Penicillium multicolor IAM7153
# Set-up: concentration or dose not given beside the values
# COND: 80 °C; heat treatment of enzyme: no; 3 h
# Procedure: Into 400 μL of 20 mM acetate buffer of pH 4.0 was suspended 50 mg of each of various soybean materials (roasted soy flour (manufactured by Fuji Shokuryo K.K.), soymilk (manufactured by Gitoh Shokuhin K.K.), defatted soybean (manufactured by Fuji Seiyu K.K.), concentrated soybean protein (manufactured by Fuji Seiyu K.K.)), whereby a substrate solution was prepared. Crude diglycosidase was diluted with 20 mM acetate buffer of pH 4.0 to be the glycosidase activity of 1.88 AU/mL. […]
ENDPOINT LABEL: Decomposition efficiency of daidzin family in soymilk (%)
Respond numerically; units are % and should not be typed.

q: Requested read-out Decomposition efficiency of daidzin family in soymilk, target or system Crude diglycosidase, entry O=C(O)CC(=O)OC[C@H]1O[C@@H](Oc2ccc3c(=O)c(-c4ccc(O)cc4)coc3c2)[C@H](O)[C@@H](O)[C@@H]1O [malonyldaidzin, 6″-O-malonyldaidzin]
a: 36.4

q: Requested read-out Decomposition efficiency of daidzin family in soymilk, target or system Crude diglycosidase, entry O=c1c(-c2ccc(O)cc2)coc2cc(O)ccc12 [daidzein]
a: 39.7

q: Requested read-out Decomposition efficiency of daidzin family in soymilk, target or system Crude diglycosidase, entry O=c1c(-c2ccc(O)cc2)coc2cc(O[C@@H]3O[C@H](CO)[C@@H](O)[C@H](O)[C@H]3O)ccc12 [daidzin]
a: 23.9
